Data origin: PubChem BioAssay (NCI)

System: HOP-18 NSCLC
Experiment Notes: NCI tumour cell line growth inhibition, 48 h
Form field: TGI (one value per entry).

Below: 3 compounds and their reported TGI.
COC(=O)N1[C@H]2Cc3c(OC)c(C)c(OC)c(OC)c3[C@@H]1/C(=C\c1cc(OC)c(OC)c(C)c1OC)N(Cc1ccccc1)C2=O : > 100 µM
COc1ccc(OC)c(/C=C/[N+](=O)[O-])c1 : 3.85 µM
CC(C)(C)C1CC[C@H]2c3c([nH]c4ccc(Br)cc34)[C@H]3C(=O)N(c4ccccc4)C(=O)[C@H]3[C@H]2C1 (stereo not given in full) : > 100 µM

Query: Fill in: TGI of "[Cu+2].[Cu+2].[O-]c1ccccc1C=Nc1ccccc1[O-].[O-]c1ccccc1C=Nc1ccccc1[O-]" is ___
Reply: 16.6 µM

Query: Which TGI is reported for this compound? "O=C(/C=C/c1ccc(OCCCCCCCCCCOc2ccc(/C=C/C(=O)c3ccc(Cl)cc3)cc2)cc1)c1ccc(Cl)cc1"
Reply: > 100 µM

---

System: NCI-H522 lung
Experiment Notes: NCI tumour cell line growth inhibition, 48 h
Experimental Readout: TGI (µM)
Please reply with the bare figure in µM and do not write the unit itself.

Query: Please give the measured TGI for this compound: "COc1ccc2c(c1)C(=O)c1c-2c(NCCCN(C)C)nc2ccccc12"
Reply: 23.4

---

System: LOX IMVI melanoma
Experiment Notes: NCI tumour cell line growth inhibition, 48 h; in the data active = GI50 below about 0.43 µM; inactive = the rest
Your reply should match one of these outcome classes. True = active, False = inactive

Examples with answers:
[Cu+2].[Cu+2].[O-]c1ccccc1C=Nc1ccccc1[O-].[O-]c1ccccc1C=Nc1ccccc1[O-] : False
COc1ccc(-c2cc3c4c(nc5ccccc5c4c2)CC(c2cc(OC)c(OC)c(OC)c2)O3)cc1 (centres undefined) : False
CS(=O)(=O)c1nccc(-c2c(-c3cccc(OCc4ccc(F)cc4)c3)nc3sccn23)n1 : False
C[C@@H]1O[C@@H](O[C@H]2C[C@@H](O)[C@]3(CO)C4C(CC[C@]3(O)C2)[C@@]2(O)CC[C@H](C3=CC(=O)OC3)[C@@]2(C)C[C@H]4O)[C@H](O)[C@H](O)[C@H]1O (some centres undefined) : True
C[C@]12CC[C@H](O)CC1=CC[C@@H]1[C@@H]2CC[C@]2(C)C(=O)/C(=C/c3cccc(OCCCn4ccnc4)c3)C[C@@H]12 : False
COc1ccc(C2C3=C(NC(=O)C2C#N)c2ccc4ccccc4c2OCC3)cc1 (centres undefined) : False
C=CC1CC12C(=O)C1OC2(C)C2C(=O)c3ccccc3C(=O)C12 (centres undefined) : False
O=C1OCC(c2ccc(O)c(O)c2)=C1c1cc(O)c(O)c(O)c1 : False
O=C1Nc2ccc(Cl)cc2/C1=C\c1c(-c2ccc(F)cc2)nc2ccccn12 : False
Cn1ncc2cc(-c3cnc(N)c(Cl)c3N3CCC4(CCNC4=O)CC3)ccc21 : False

Query: Status in this test for "O=C(CC12CC3CC(CC(C3)C1)C2)NCCOCCOCCNC(=O)c1cc2c(o1)C(=O)c1ccccc1C2=O" ?
Reply: False

Query: Would you mind telling me which call this test gave "CCC(=O)Sc1ccccc1C(=O)Nc1ccc(Cl)cc1" ?
Reply: False

Query: For "CCCOC(=O)N[C@H]1CCc2c(Br)c(OC)c(OC)c(OC)c2-c2ccc(SC)c(=O)cc21" , which call appears in the assay record?
Reply: True

Query: # outcome recorded in this test, key = "Nc1ccccc1C#C/C=C\C#Cc1ccc(F)cc1F"
Reply: False
